Form field: IC50 (one value per entry).
- experiment.summary: In vitro cytotoxicity, normal cells HL-7702
- condition.description: human

| compound | units | result.comparator | IC50 |
| --- | --- | --- | --- |
| C[C@]12CC[C@@H](O)C[C@@H]1CC[C@@H]1[C@@H]2CC[C@]2(C)C(=O)CC[C@@H]12 | µM | > | 100 |
| C[C@]12CC[C@H](O)C[C@@H]1CC[C@@H]1[C@@H]2CC[C@]2(C)C(=O)CC[C@@H]12 [Epiandrosterone] | µM | = | 91.2 |
| C[C@]12CC[C@@H](O)C[C@@H]1CC[C@@H]1[C@@H]2CC[C@]2(C)C(=NN=C3C(=O)Nc4ccc(Cl)cc43)CC[C@@H]12 | µM | = | 6.36 |
| C[C@]12CC[C@@H](O)C[C@@H]1CC[C@@H]1[C@@H]2CC[C@]2(C)C(=NN=C3C(=O)Nc4ccc(F)cc43)CC[C@@H]12 | µM | = | 7.09 |
| C[C@]12CC[C@@H](O)C[C@@H]1CC[C@@H]1[C@@H]2CC[C@]2(C)C(=NN=C3C(=O)Nc4ccc(Br)cc43)CC[C@@H]12 | µM | = | 4.4 |
| C[C@]12CC[C@H](O)CC1CC[C@@H]1[C@@H]2CC[C@]2(C)C(=NN=C3C(=O)Nc4cc(F)ccc43)CC[C@@H]12 (stereo partly shown) | µM | = | 7.87 |
| C[C@]12CC[C@@H](O)C[C@@H]1CC[C@@H]1[C@@H]2CC[C@]2(C)C(=NN=C3C(=O)Nc4cc(F)ccc43)CC[C@@H]12 | µM | = | 12.8 |
